Target: T1, human GIP receptor (human) (UniProt P48546)
T1 sequence (looked up): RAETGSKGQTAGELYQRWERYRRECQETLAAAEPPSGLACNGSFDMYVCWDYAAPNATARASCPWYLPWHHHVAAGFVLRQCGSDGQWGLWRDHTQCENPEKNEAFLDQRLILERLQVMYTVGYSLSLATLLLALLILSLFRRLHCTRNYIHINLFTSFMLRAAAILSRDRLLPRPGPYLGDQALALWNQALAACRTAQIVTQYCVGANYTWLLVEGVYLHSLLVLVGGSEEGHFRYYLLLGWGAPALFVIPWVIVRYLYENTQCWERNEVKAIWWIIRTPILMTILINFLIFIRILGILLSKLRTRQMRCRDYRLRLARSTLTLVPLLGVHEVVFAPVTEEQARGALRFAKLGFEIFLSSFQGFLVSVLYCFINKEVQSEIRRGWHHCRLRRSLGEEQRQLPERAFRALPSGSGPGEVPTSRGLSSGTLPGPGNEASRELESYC
Experiment: cell-based or functional assay
assay_readout: cAMP Rel EC50, nM (1% HSA) (nM)
Could you give me the number in nM? Just the number is fine.

Examples with answers:
# binder, cAMP Rel EC50, nM (1% HSA), nM
records = [
    ("YXQGTFTSDFSXXLDKKAQXAFIEWLLEGGTSSGAPPPSGE (synthetic construct; SITE 2: note = 2-Aminoisobutyric Acid; SITE 12: note = L-ornithine; SITE 13: note = alpha-methyl-leucine; SITE 17: note = Lysine is chemically modified through conjugation of the epsilon-amino group of the Lysine side chain with (2-[2-(2-Amino-ethoxy)-ethoxy]-acetyl)-(gamma-Glu)) [Example 175]", 29.6),
    ("YXQGTFTSDXSQXLDXKAQXAFIEYLIAGGPSSGEPPPSGS (non-natural residues; lipidated Lys; C-terminal amide; synthetic construct; SITE 2: note = 2-Aminoisobutyric Acid; SITE 10: note = 3-(4-Pyridyl)-L-alanine; SITE 13: note = alpha-methyl-leucine; SITE 16: note = L-ornithine; SITE 17: note = Lysine is chemically modified through conjugation of the epsilon-amino group of the Lysine side chain with (gamma-Gl)) [Example 1007]", 12),
]

Please fill in: cAMP Rel EC50, nM (1% HSA) reported for YXQGTXTSDYXIXLDXKAQXAFIEYLLEGGPSSGEPPPE (synthetic construct; SITE 2: note = 2-Aminoisobutyric Acid; SITE 6: note = alpha-methyl-L-phenylalanine; SITE 11: note = alpha-methyl-L-serine; SITE 13: note = alpha-methyl-leucine; SITE 16: note = L-ornithine; SITE 17: note = Lysine is chemically modified through conjugation of the epsilon-amino gr) [Example 420] = 2.61

Please fill in: cAMP Rel EC50, nM (1% HSA) reported for YXQGTFTSDXSXXLDKKAQXAFIEXLIAGGPSSGEPPPSGS (Aib, 4Pal, Orn, αMeL, Me4Pal, αMeY; γGlu2-C18 diacid Lys; amide; synthetic construct; SITE 2: note = 2-Aminoisobutyric Acid; SITE 10: note = 3-(4-Pyridyl)-L-alanine; SITE 12: note = L-ornithine; SITE 13: note = alpha-methyl-leucine; SITE 17: note = Lysine is chemically modified through conjugation of the epsilon-amino group of the Lysine side chain with (gamma-Gl)) [Example 1014] = 5.62

Please fill in: cAMP Rel EC50, nM (1% HSA) reported for YXQGTFTSDXSXXLDXKAQXEFIEXLLEGGPSSGAPPPSGSEE (non-natural residues; lipidated Lys; C-terminal amide; synthetic construct; SITE 2: note = 2-Aminoisobutyric Acid; SITE 10: note = 3-(4-Pyridyl)-L-alanine; SITE 12: note = L-ornithine; SITE 13: note = alpha-methyl-leucine; SITE 16: note = L-ornithine; SITE 17: note = Lysine is chemically modified through conjugation of the epsilon-amino group of the Lys) [Example 976] = 82.7

Please fill in: cAMP Rel EC50, nM (1% HSA) reported for YXQGTFTSDXSXXLDKKAQXAFIEYLIEXGESSGAPPPSGE (acylated peptide; synthetic construct; SITE 2: note = 2-Aminoisobutyric Acid; SITE 10: note = 3-(4-Pyridyl)-L-alanine; SITE 12: note = L-ornithine; SITE 13: note = alpha-methyl-leucine; SITE 17: note = Lysine is chemically modified through conjugation of the epsilon-amino group of the Lysine side chain with (2-[2-(2-) [Example 222] = 52.5

Please fill in: cAMP Rel EC50, nM (1% HSA) reported for YXQGTXTSDYSILLDKKAQXAFIEYLEEGGPSSGAPPPSE (synthetic construct; SITE 2: note = 2-Aminoisobutyric Acid; SITE 6: note = alpha-methyl-2-fluoro-L-phenylalanine; SITE 17: note = Lysine is chemically modified through conjugation of the epsilon-amino group of the Lysine side chain with (gamma-Glu)2-CO-(CH2)16-CO2H; SITE 20: note = 2-Aminoisobutyric) [Example 433] = 15.3

Please fill in: cAMP Rel EC50, nM (1% HSA) reported for YXQGTXTSDYXIXLDXKAQXXFIEYLLEGGPSSGEPPPE (synthetic construct; SITE 2: note = 2-Aminoisobutyric Acid; SITE 6: note = alpha-methyl-L-phenylalanine; SITE 11: note = alpha-methyl-L-serine; SITE 13: note = alpha-methyl-leucine; SITE 16: note = L-ornithine; SITE 17: note = Lysine is chemically modified through conjugation of the epsilon-amino gr) [Example 391] = 11.5

Please fill in: cAMP Rel EC50, nM (1% HSA) reported for YXQGTXTSDYSILLDKKAQXAFIEYLEEGGPSSGAPPPS (not fully specified; synthetic construct; SITE 2: note = 2-Aminoisobutyric Acid; SITE 6: note = alpha-methyl-2-fluoro-L-phenylalanine; SITE 17: note = Lysine is chemically modified through conjugation of the epsilon-amino group of the Lysine side chain with (2-[2-(2-Amino-ethoxy)-ethoxy]-acetyl)-(gamma-Glu)-CO-(CH2) 16-) [Example 387] = 5.64

Please fill in: cAMP Rel EC50, nM (1% HSA) reported for YXQGTXTSDYXIXLDXKAQXXFIEYLLEGGPSSGAPPPS (synthetic construct; SITE 2: note = 2-Aminoisobutyric Acid; SITE 6: note = alpha-methyl-2-fluoro-L-phenylalanine; SITE 11: note = alpha-methyl-L-serine; SITE 13: note = alpha-methyl-leucine; SITE 16: note = L-ornithine; SITE 17: note = Lysine is chemically modified through conjugation of the epsilon) [Example 384] = 3.63

Please fill in: cAMP Rel EC50, nM (1% HSA) reported for YXQGTXTSDXXIXLDXKAQXEFIEXLVEGGPSSGAPPPSGSE (synthetic construct; SITE 2: note = 2-Aminoisobutyric Acid; SITE 6: note = alpha-methyl-2-fluoro-L-phenylalanine; SITE 10: note = 3-(4-Pyridyl)-L-alanine; SITE 11: note = alpha-methyl-L-serine; SITE 13: note = alpha-methyl-leucine; SITE 16: note = L-ornithine; SITE 17: note = Lysine is chemically mo) [Example 751] = 1.27
